What microsomal CLint at 2 μM was measured for each of the following?
Experiment: Microsomal stability, human liver microsomes
Type: in vitro ADME
Conditions: pH 7.4, 0.42 mg microsomal protein per ml, 37° C., five time points over 40 minutes

State the recorded microsomal CLint at 2 μM for this entry: `Cc1nc2cc(F)c(F)cc2c(=O)n1-c1ccc(NC(=O)Cc2ccc(C(F)(F)F)cc2)cc1`
7 µL/min/mg

State the recorded microsomal CLint at 2 μM for this entry: `Cc1nc2ccccc2c(=O)n1-c1ccc(NC(=O)Cc2ccccc2)cc1`
12 µL/min/mg

State the recorded microsomal CLint at 2 μM for this entry: `Cc1nc2cc(F)c(F)cc2c(=O)n1-c1ccc(NC(=O)Cc2ccccc2)cc1`
4 µL/min/mg

###

Test: Pharmacokinetics after a single intraperitoneal dose, plasma by LC-MS/MS
Assay type: in vivo, male Balb/cAnN mice
Settings: male, Balb/cAnN; mouse, IP, 10 mg/kg, plasma; read-out: AUC0→t = 60 min (AUClast) (converted)
metric: AUC(0-t) (ng·h/mL)
Value expressed in ng·h/mL; do not type the unit.

State the recorded AUC(0-t) for this entry: `Cc1nc2ccccc2c(=O)n1-c1ccc(NC(=O)Cc2ccccc2)cc1`
30000

###

What EC50 was measured for each of the following?
Target: hFSP1 (Homo sapiens, UniProt Q9BRQ8)
Sequence (Q9BRQ8 1-373): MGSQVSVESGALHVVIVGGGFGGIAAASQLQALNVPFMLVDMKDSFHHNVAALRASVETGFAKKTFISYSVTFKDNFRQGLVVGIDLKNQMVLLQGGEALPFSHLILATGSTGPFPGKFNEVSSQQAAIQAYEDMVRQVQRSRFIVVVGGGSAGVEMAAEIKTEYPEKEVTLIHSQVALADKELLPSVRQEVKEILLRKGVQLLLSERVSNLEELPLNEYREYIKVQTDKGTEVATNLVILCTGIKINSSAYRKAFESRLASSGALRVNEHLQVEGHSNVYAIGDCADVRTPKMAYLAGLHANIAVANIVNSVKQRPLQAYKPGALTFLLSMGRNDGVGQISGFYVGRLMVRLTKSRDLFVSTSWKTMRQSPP
Test: Dose-response of screening hits, cell survival by Aquabluer in hFSP1 GPX4 KO cells
Details: FSP1 overexpressing cells lacking GPX4

State the recorded EC50 for this entry: `COc1ccc(CC(=O)Nc2ccc(-n3c(C)nc4ccccc4c3=O)cc2C)cc1`
> 1000 nM

State the recorded EC50 for this entry: `Cc1nc2cc(F)c(F)cc2c(=O)n1-c1ccc(NC(=O)Cc2ccc(C(F)(F)F)cc2)cc1`
< 1000 nM

State the recorded EC50 for this entry: `COc1cc(CC(=O)Nc2ccc(-n3c(C)nc4cnccc4c3=O)cc2)cc(OC)c1OC`
> 1000 nM

State the recorded EC50 for this entry: `COc1ccc(CC(=O)Nc2ccc3nc(C)n(-c4ccc(F)cc4)c(=O)c3c2)cc1OC`
> 1000 nM

###

Molecular target: hFSP1 (Homo sapiens)
Sequence (Q9BRQ8 1-373): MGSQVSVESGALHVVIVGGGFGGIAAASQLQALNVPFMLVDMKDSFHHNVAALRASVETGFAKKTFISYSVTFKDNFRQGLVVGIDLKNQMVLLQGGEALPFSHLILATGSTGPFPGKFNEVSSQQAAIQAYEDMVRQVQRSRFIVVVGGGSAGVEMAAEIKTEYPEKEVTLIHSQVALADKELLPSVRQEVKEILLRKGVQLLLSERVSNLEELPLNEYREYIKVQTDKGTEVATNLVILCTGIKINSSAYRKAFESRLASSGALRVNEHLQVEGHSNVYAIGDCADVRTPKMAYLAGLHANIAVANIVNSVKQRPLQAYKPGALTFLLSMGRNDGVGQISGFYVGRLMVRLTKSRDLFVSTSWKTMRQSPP
Experiment: Dose-response of screening hits, cell survival by Aquabluer in hFSP1 GPX4 KO cells
Details: FSP1 overexpressing cells lacking GPX4
Procedure: To identify new small molecule inhibitors that induce ferroptosis in FSP1 overexpressing cells lacking GPX4, hFSP1 GPX4 KO as well as FSP1 GPX4 wild type (WT) isogenic fibroblasts were screened using a subtractive high throughput screening (HTS) approach. […] Cell survival was evaluated using the LIVE/DEAD assay Aquabluer. The percentage (%) of viable cells was determined for both wild type (WT) and knockout (KO) cell lines. […]
pEC50: −log10 of the molar value.
What pEC50 was measured for each of the following?

State the recorded pEC50 for this entry: `Cc1ccc(CC(=O)Nc2ccc(-n3c(C)nc4ccccc4c3=O)cc2C)cc1`
< 6.00

State the recorded pEC50 for this entry: `Cc1nc2ccccc2c(=O)n1-c1ccc(NC(=O)Cc2ccc(Cl)cc2)cc1`
> 6.00

State the recorded pEC50 for this entry: `Cc1nc2cc(F)c(F)cc2c(=O)n1-c1ccc(NC(=O)Cc2cccnc2)cc1`
< 6.00

State the recorded pEC50 for this entry: `COc1cc(C(=O)Nc2ccc(-n3c(C)nc4ccccc4c3=O)cc2)cc(OC)c1OC`
< 6.00

State the recorded pEC50 for this entry: `Cc1nc2cc(F)c(F)cc2c(=O)n1-c1ccc(NC(=O)Cc2ccccn2)cc1`
< 6.00

State the recorded pEC50 for this entry: `CCOc1ccc(CC(=O)Nc2ccc(-n3c(C)nc4ccccc4c3=O)cc2C)cc1`
> 6.00

State the recorded pEC50 for this entry: `Cc1cc(-n2c(C)nc3ccccc3c2=O)ccc1NC(=O)Cc1c(F)cccc1Cl`
> 6.00

State the recorded pEC50 for this entry: `COc1cc(CC(=O)Nc2ccc(-n3c(CO)nc4ccccc4c3=O)cc2)cc(OC)c1OC`
< 6.00

State the recorded pEC50 for this entry: `Cc1nc2ccccc2c(=O)n1-c1ccc(NC(=O)Cc2ccc(F)cc2)cc1`
< 6.00

State the recorded pEC50 for this entry: `COc1ccc(CC(=O)Nc2cccc(-n3c(C)nc4ccccc4c3=O)c2)cc1`
< 6.00

State the recorded pEC50 for this entry: `Cc1nc2ccccc2c(=O)n1-c1ccc(NC(=O)Cc2ccccc2)cc1`
< 6.00

State the recorded pEC50 for this entry: `COc1cc(CC(=O)Nc2ccc(-n3c(C)nc4ccccc4c3=O)cc2C)cc(OC)c1OC`
> 6.00

State the recorded pEC50 for this entry: `Cc1cc(-n2c(C)nc3ccccc3c2=O)ccc1NC(=O)Cc1ccc(Cl)cc1`
> 6.00

State the recorded pEC50 for this entry: `Cc1nc2ccccc2c(=O)n1-c1ccc(N(C)S(=O)(=O)Cc2ccccc2)cc1`
< 6.00

State the recorded pEC50 for this entry: `COc1ccc(CC(=O)Nc2ccc(-n3c(C)nc4ccccc4c3=O)cc2C)c(Cl)c1`
> 6.00

State the recorded pEC50 for this entry: `Cc1cc(-n2c(C)nc3ccccc3c2=O)ccc1NC(=O)Cc1ccc(F)cc1`
< 6.00

State the recorded pEC50 for this entry: `COc1cc(CC(=O)Nc2ccc(-n3c(C(F)(F)F)nc4ccccc4c3=O)cc2)cc(OC)c1OC`
> 6.00

State the recorded pEC50 for this entry: `COc1cc(CC(=O)Nc2ccc(-n3c(C)nc4ccccc4c3=O)cc2)cc(OC)c1OC`
> 6.00

State the recorded pEC50 for this entry: `Cc1cc(-n2c(C)nc3ccccc3c2=O)ccc1NC(=O)Cc1ccccc1F`
< 6.00

State the recorded pEC50 for this entry: `COc1cc(CC(=O)Nc2ccc(-n3c(C(F)F)nc4ccccc4c3=O)cc2)cc(OC)c1OC`
< 6.00

State the recorded pEC50 for this entry: `Cc1nc2ccccc2c(=O)n1-c1ccc(NC(=O)Cc2c(F)cccc2Cl)cc1`
> 6.00

State the recorded pEC50 for this entry: `Cc1ccc(CC(=O)Nc2ccc(-n3c(C)nc4ccccc4c3=O)cc2)cc1`
> 6.00

State the recorded pEC50 for this entry: `COc1cc(CC(=O)Nc2ccc(-n3c(C)nc4cc(F)c(F)cc4c3=O)cc2)cc(OC)c1OC`
> 7.00

State the recorded pEC50 for this entry: `Cc1nc2cc(F)c(F)cc2c(=O)n1-c1ccc(NC(=O)Cc2cc(C(F)(F)F)cc(C(F)(F)F)c2)cc1`
> 7.00

State the recorded pEC50 for this entry: `Cc1cc(CC(=O)Nc2ccc(-n3c(C)nc4cc(F)c(F)cc4c3=O)cc2)cc(C)n1`
< 6.00

State the recorded pEC50 for this entry: `Cc1cc(CC(=O)Nc2ccc(-n3c(C)nc4cc(F)c(F)cc4c3=O)cc2)cc(C)c1C`
> 7.00

Data credit: patent US20260209218A1
